# System: Echinochloa crus-galli (ECHCG)
# Method: Pre-emergence glasshouse herbicide test
# Type: in vivo
# Assay setup: PRE Application, 1000 g/h, after 13 days
Known percentage damage caused to the plant, ECHCG of a selection of molecules
Reported property: percentage damage caused to the plant, ECHCG

| Compound structure | Result |
| --- | --- |
| Cc1nc2c(cc1F)cc(C(=O)Nc1nnnn1C)c(=O)n2-c1ccsc1 | 1 (1=0-19%) |
| Cn1nnnc1NC(=O)c1nc2ccccc2n(-c2ccc(OC(F)(F)F)cc2)c1=O | 5 (5=80-100%) |
| Cn1ncnc1NC(=O)c1nc2ccccc2n(-c2ccccc2)c1=O | 1 (1=0-19%) |
| Cn1nnnc1NC(=O)c1nc2ccccc2n(-c2ccc(Cl)cc2)c1=O | 5 (5=80-100%) |
| Cn1nnnc1NC(=O)c1nc2ccccc2n(-c2ccc(F)cc2)c1=O | 5 (5=80-100%) |
| C=Cc1cccc(-n2c(=O)c(C(=O)Nc3nnnn3C)nc3ccccc32)c1 | 5 (5=80-100%) |
| Cn1nnnc1NC(=O)c1nc2ccccc2n(-c2ccc(C(F)(F)F)c(Cl)c2)c1=O | 1 (1=0-19%) |
| Cn1nnnc1NC(=O)c1nc2cc(C(F)(F)F)ccc2n(C)c1=O | 2 (2=20-39%) |
| Cn1nnnc1NC(=O)c1cc2cnc(Cl)cc2n(-c2ccccc2)c1=O | 1 (1=0-19%) |
| Cn1nnnc1NC(=O)c1nc2ccccc2n(-c2ccccc2)c1=O | 5 (5=80-100%) |
| Cn1nnnc1NC(=O)c1nc2ccccc2n(-c2cccc(C(F)(F)F)c2)c1=O | 5 (5=80-100%) |
| Cc1cccc(-n2c(=O)c(C(=O)Nc3ncnn3C)nc3ccccc32)n1 | 1 (1=0-19%) |
| Cn1nnnc1NC(=O)c1nc2ccccc2n(-c2ccc(C(F)(F)F)cc2)c1=O | 5 (5=80-100%) |
| Cn1nnnc1NC(=O)c1nc2ccccc2n(-c2cc(Cl)cc(Cl)c2)c1=O | 1 (1=0-19%) |
| COc1ccc(-n2c(=O)c(C(=O)Nc3nnnn3C)nc3ccccc32)cc1 | 5 (5=80-100%) |
| Cn1nnnc1NC(=O)c1nc2ccccc2n(-c2cccc(Cl)c2)c1=O | 5 (5=80-100%) |
| Cn1nnnc1NC(=O)c1nc2ccccc2n(-c2ccc(Cl)c(Cl)c2)c1=O | 2 (2=20-39%) |

###

# Test system: Setaria faberi (SETFA)
# Method: Post-emergence glasshouse herbicide test
# Format: in vivo
# Assay setup: POST Application, 1000 g/h, after 13 days
Reported property: percentage damage caused to the plant, SETFA

| Compound structure | Result |
| --- | --- |
| COc1ccc(-n2c(=O)c(C(=O)Nc3nnnn3C)nc3ccccc32)cc1 | 2 (2=20-39%) |
| Cn1nnnc1NC(=O)c1nc2ccccc2n(-c2ccc([N+](=O)[O-])cc2)c1=O | 4 (4=60-79%) |
| Cc1cccc(-n2c(=O)c(C(=O)Nc3ncnn3C)nc3ccccc32)n1 | 5 (5=80-100%) |
| Cc1nc2c(cc1F)cc(C(=O)Nc1nnnn1C)c(=O)n2-c1ccsc1 | 2 (2=20-39%) |
| Cn1nnnc1NC(=O)c1nc2ccccc2n(C)c1=O | 1 (1=0-19%) |
| Cn1nnnc1NC(=O)c1nc2cccnc2n(C)c1=O | 2 (2=20-39%) |
| CCn1c(=O)c(C(=O)Nc2nnnn2C)cc2cnc(Cl)cc21 | 1 (1=0-19%) |
| C=Cc1cccc(-n2c(=O)c(C(=O)Nc3nnnn3C)nc3ccccc32)c1 | 5 (5=80-100%) |
| Cn1nnnc1NC(=O)c1nc2ccccc2n(-c2cccc([N+](=O)[O-])c2)c1=O | 5 (5=80-100%) |

###

The reader will find reported percentage damage caused to the plant, SETFA values listed item by item below.
# Tested on: Setaria faberi (SETFA)
# Method: Post-emergence glasshouse herbicide test
# Type: in vivo
# Assay setup: POST Application, 1000 g/h, after 13 days
Reported property: percentage damage caused to the plant, SETFA

| Compound structure | Result |
| --- | --- |
| Cc1nc2c(cc1F)cc(C(=O)Nc1nnnn1C)c(=O)n2-c1ccccc1 | 3 (3=40-59%) |
| Cn1nnnc1NC(=O)c1nc2ccccc2n(-c2ccc(Cl)c(Cl)c2)c1=O | 4 (4=60-79%) |
| Cn1nnnc1NC(=O)c1nc2ccccc2n(-c2ccc(F)cc2)c1=O | 5 (5=80-100%) |
| Cn1nnnc1NC(=O)c1cc2ccncc2n(-c2ccccc2)c1=O | 1 (1=0-19%) |
| Cn1nnnc1NC(=O)c1cc2ccccc2n(-c2ccsc2)c1=O | 1 (1=0-19%) |

###

# Test system: Echinochloa crus-galli (ECHCG)
# Method: Pre-emergence glasshouse herbicide test
# Type: in vivo
# Assay setup: PRE Application, 1000 g/h, after 13 days
Reported property: percentage damage caused to the plant, ECHCG

| Compound structure | Tgt | Result |
| --- | --- | --- |
| Cc1nc2c(cc1F)cc(C(=O)Nc1nnnn1C)c(=O)n2-c1ccccc1 | Echinochloa crus-galli (ECHCG) | 3 (3=40-59%) |
| Cn1nnnc1NC(=O)c1nc2ccccc2n(-c2ccc([N+](=O)[O-])cc2)c1=O | Echinochloa crus-galli (ECHCG) | 5 (5=80-100%) |
| Cn1nnnc1NC(=O)c1cc2cccnc2n(C)c1=O | Echinochloa crus-galli (ECHCG) | 1 (1=0-19%) |
| Cc1cccc(-n2c(=O)c(C(=O)Nc3nnnn3C)nc3ccccc32)c1 | Echinochloa crus-galli (ECHCG) | 4 (4=60-79%) |
| CSc1ccc(-n2c(=O)c(C(=O)Nc3nnnn3C)nc3ccccc32)cc1 | Echinochloa crus-galli (ECHCG) | 3 (3=40-59%) |
| CCn1c(=O)c(C(=O)Nc2nnnn2C)cc2cnc(Cl)cc21 | Echinochloa crus-galli (ECHCG) | 2 (2=20-39%) |
| CCOc1cccc(-n2c(=O)c(C(=O)Nc3nnnn3C)nc3ccccc32)c1 | Echinochloa crus-galli (ECHCG) | 2 (2=20-39%) |
| Cn1nnnc1NC(=O)c1nc2cc(Cl)ccc2n(-c2ccccc2)c1=O | Echinochloa crus-galli (ECHCG) | 2 (2=20-39%) |
| Cn1nnnc1NC(=O)c1nc2cccnc2n(-c2ccccc2)c1=O | Echinochloa crus-galli (ECHCG) | 1 (1=0-19%) |
| Cn1nnnc1NC(=O)c1cc2ccccc2n(-c2ccccc2)c1=O | Echinochloa crus-galli (ECHCG) | 1 (1=0-19%) |
| Cn1nnnc1NC(=O)c1nc2ccccc2n(-c2ccc(Cl)c(C(F)(F)F)c2)c1=O | Echinochloa crus-galli (ECHCG) | 2 (2=20-39%) |
| Cc1ccccc1-n1c(=O)c(C(=O)Nc2nnnn2C)nc2ccccc21 | Echinochloa crus-galli (ECHCG) | 5 (5=80-100%) |
